- test-method-notes: orientative test for oral acute toxicity in female mice
- condition-description: mouse, in vivo, po
parameter: LD50 at 168 h

Quickly give me recorded LD50 at 168 h for CC(C(=O)O)c1ccc(OCc2ccc(Cl)cc2)c(Cl)c1 (stereo not shown) [reference compound]
> 1000 mg/kg
